These measurements were taken from PubChem BioAssay.

- MEASURED_ON: NADPH oxidase 2 (Homo sapiens)
- TEST_NAME: compounds shifting NOX2 Amplex Red fluorescence – cell-based, HEK293-NOX2, PMA-stimulated, NOX inhibitor project, primary screen (AID 1159); also: test concentration not given here
- MEASUREMENT_PARAMETERS: 45 min, higher = more signal, called active from +8 up or from −8 down
The source made the active and inactive calls.
OBSERVABLE: z-score

Reference set, count: 5
COMPOUND	z-score
COC(=O)[C@@]1(Cc2ccc(F)cc2)[C@H]2c3cc(C(=O)N(C)C)n(CCc4ccc(OC)c(Br)c4)c3C[C@H]2CN1C(=O)c1ccccc1	-3.62 (inactive)
COc1ccc([C@H]2OC[C@@H]3C[C@H](Cc4ccccc4)C(=O)N32)cc1	0.829 (inactive)
[N-]=[N+]=Nc1ccccc1C[C@@]1(C(N)=O)N=C(c2ccc(OCCCO)cc2)O[C@@H]1c1ccccc1N=[N+]=[N-]	-0.0581 (inactive)
[N-]=[N+]=Nc1ccccc1C[C@]1(C(=O)N2CCOCC2)COC(c2ccc(OCCCO)cc2)=N1	-3.84 (inactive)
CCCCC(CC)C(O)C1C=CC2C(=O)N(c3ccccc3)C(=O)C2N1Nc1ccccc1F (stereo not given)	-0.157 (inactive)

Now let's try a different one.
-- ask What value of z-score has been recorded for this entry: `C=CCN1C(=O)[C@]2(CCS(=O)(=O)c3ccccc3)N=C(c3ccc(OCCCO)cc3)O[C@@H]2c2ccccc21`
-- reply -0.428 (inactive)

---

- TEST_NAME: budding yeast growth modifiers under rapamycin – strain BY4716, OD600, 96 h, primary screen (AID 1091); also: test concentration not given here
- MEASUREMENT_PARAMETERS: S. cerevisiae BY4716 + rapamycin, higher = more signal, called active from +8 up or from −8 down
OBSERVABLE: z-score
Hey, just send me the number, nothing else.

Reference set (3 entries):
MOLECULE	z-score
COc1cc(C(O)C2C=CC3C(=O)N(C)C(=O)C3N2Nc2ccccc2)cc(OC)c1OC (configuration not stated)	-0.299
[N-]=[N+]=Nc1ccccc1C[C@]1(C(=O)O)COC(c2ccc(OCCCO)cc2)=N1	0.559
CC(C)N1C(=O)c2ccccc2[C@@H](C(=O)NCCN2CCOCC2)[C@@H]1c1ccc(CO)cc1	0.673

// next entry
-- ask Recorded z-score for O=C1OCCC=C[C@H]2OC34C=CCN(Cn5nnc6ccccc65)C(=O)[C@H]3N(CCCO)C(=O)[C@@H]4C12 (some centres not stated) , please?
-- reply -0.342

---

Property: z-score; scope: individual compounds
- TEST_NAME: growth modulation of vineyard yeast isolate – strain RM11-1a, OD600, basal, 24 h, primary screen (AID 1177);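 also: cultures grown under basal conditions with no added stressor; test concentration not given here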
- MEASUREMENT_PARAMETERS: S. cerevisiae RM11-1a growth, OD600, 24 h; higher = more signal, called active from +8 up or from −8 down
Response field accepts a number only; no unit should be typed.

Would you please look over these solved cases?
COMPOUND	z-score
[N-]=[N+]=Nc1ccccc1C[C@]1(C(=O)NCCN2CCOCC2)COC(c2ccc(OCCCO)cc2)=N1	-0.71
C=CCC(OC(C)=O)[C@@H]1[C@@H](N(Cc2ccc(-c3cccc(C(F)(F)F)c3)o2)C(=O)Cc2ccc(OC)cc2)c2cc(OCCCO)ccc2N1C(=O)c1ccc(-c2ccccc2)cc1 (stereo partly drawn)	0.0869
CCOC(=O)C1=CC[C@@H](c2ccccc2F)N(S(=O)(=O)c2ccc(C)cc2)[C@H]1c1ccccc1	0.262
CC1CC/C=C\[C@H]2OC34C=CCN(C(C)(C)C)C(=O)[C@H]3N(CCCCCO)C(=O)[C@@H]4C2C(=O)O1 (stereo partly drawn)	-0.202
CCCCN1CC=CC23O[C@@H]4/C=C\CCCOC(=O)C4[C@H]2C(=O)N(CCO)[C@@H]3C1=O (stereo partly drawn)	0.507

-- ask Could you tell me which z-score is on file for `CC[C@@H]1C=C(C(=O)O)[C@H](c2ccccc2)N1S(=O)(=O)c1ccc(C)cc1` ?
-- reply -1.02

-- ask Please look up its z-score: `COCC(=C=CC[C@H](O)c1ccc(CO)o1)CCO`
-- reply 0.256

-- ask Fill blank: measured z-score of the compound `COC(=O)[C@@]1(Cc2ccc(F)cc2)[C@H]2c3cc(C(=O)N4CCCC4)n(CCc4c[nH]c5ccccc45)c3C[C@H]2CN1C(=O)c1ccccc1` is ____.
-- reply 0.0323
